Hey, just so you know, these numbers are from patent EP4567035A1.

Quick reference: IC50 of the listed items.
Test system: VEGF
Assay: Evaluation of VEGF protein secretion level (Human VEGF ELISA) in ARPE-19 cell medium under hypoxic conditions
Format: cell-based
Settings: ARPE-19 cells; pretreated 2 hours, 24 hours hypoxic conditions; secreted VEGF in medium supernatant by ELISA; concentration range reducing VEGF by 50% vs untreated control; read-out: IC50 VEGF

Some molecules with known IC50 results, for comparison:
| molecule | test-system | IC50 |
| --- | --- | --- |
| O=C(NCc1cc(F)cc(-n2cc(-c3ccc(F)cc3)cn2)c1)c1ncnc2nc(C3CCCC3)[nH]c12 | VEGF | > 10000 nM |
| O=C(NCc1cc(F)cc(-c2cnn(-c3ccc(F)cc3)c2)c1)c1ncnc2nc(C3CC4(C3)CC(F)(F)C4)[nH]c12 | VEGF | > 10000 nM |
| O=C(NCc1cc(F)cc(-c2ccco2)c1)c1ncnc2nc(C3CCCC3)[nH]c12 | VEGF | 100 to 1000 nM |

What IC50 appears in the records for this molecule with VEGF? `O=C(NCc1cc(F)cc(-c2cnn(-c3ccc(F)cc3)c2)c1)c1ncnc2nc(C3CC4(CC4)C3)[nH]c12` 100 to 1000 nM

Query IC50 on VEGF for `CS(=O)(=O)c1ccc(Cn2cc(-c3cc(F)cc(CNC(=O)c4ncnc5nc(C6CCCC6)[nH]c45)c3)cn2)cc1` 100 to 1000 nM

For the record `Cn1ccc(Nc2cc(F)cc(CNC(=O)c3ncnc4nc(C5CCCC5)[nH]c34)c2)n1` , what value of IC50 is listed for VEGF? 100 to 1000 nM

Please state recorded IC50 (tested on VEGF) of O=C(NCc1cc(F)cc(-c2cnn(-c3ccc(F)cc3)c2)c1)c1ncnc2nc(C3CC(C(=O)O)C3)[nH]c12 (centres unmarked) > 10000 nM

Give the reported IC50 for `O=C(NCc1cc(F)cc(-c2cnn(-c3ccccc3)c2)c1)c1ncnc2nc(C3CCCC3)[nH]c12` (system: VEGF). 100 to 1000 nM

Kindly state the measured IC50 obtained for `O=C(NCc1cc(F)cc(-c2cnn(-c3cnn(Cc4ccccc4)c3)c2)c1)c1ncnc2nc(C3CCCC3)[nH]c12` with VEGF. 100 to 1000 nM

VEGF / IC50 / `[2H]C1([2H])C(c2nc3ncnc(C(=O)NCc4cc(F)cc(-c5cnn(-c6ccc(F)cc6)c5)c4)c3[nH]2)C([2H])([2H])C([2H])([2H])C1([2H])[2H]` : value? 100 to 1000 nM

---

Test system: VEGF
Assay: Evaluation of VEGF protein secretion level (Human VEGF ELISA) in ARPE-19 cell medium under hypoxic conditions
Assay type: cell-based
Details: ARPE-19 cells; pretreated 2 hours, 24 hours hypoxic conditions; secreted VEGF in medium supernatant by ELISA; concentration range reducing VEGF by 50% vs untreated control; read-out: IC50 VEGF
Method: ARPE-19 cells (Human retinal pigment epithelial cells, ATCC CRL-2302) were cultured in DMEM/F12 (LM002-08, Welgene) medium containing 10% fetal bovine serum (FBS, 16000-044, Gibco) in an incubator at 37°C with 5% carbon dioxide. When the cells grew sufficiently, they were cultured in experimental culture dishes for protein isolation and medium supernatant acquisition. Cells were detached from the culture dish using TrypLE™ Express (Gibco). […] The cells were counted and seeded into new culture dishes. […]
pIC50: −log10 of the molar value.
measurement-name: pIC50

// worked examples, pIC50 included
| molecule | pIC50 |
| --- | --- |
| O=C(NCc1cccc(F)c1)c1ncnc2nc(C3CCCC3)[nH]c12 | 6.00 to 7.00 |
| O=C(NCc1cc(F)cc(-c2cnn(-c3ccc(F)cc3)c2)c1)c1ncnc2nc(C3CC4(CCC4)C3)[nH]c12 | 5.00 to 6.00 |
| O=C(NCc1cc(F)cc(Nc2ccc(C(F)(F)F)cc2)c1)c1ncnc2nc(C3CCCC3)[nH]c12 | 6.00 to 7.00 |
| O=C(NCc1cc(F)cc(-c2cnn(-c3ccoc3)c2)c1)c1ncnc2nc(C3CCCC3)[nH]c12 | 6.00 to 7.00 |
| CS(=O)(=O)c1cc(Br)ccc1-n1cc(-c2cc(F)cc(CNC(=O)c3ncnc4nc(C5CCCC5)[nH]c34)c2)cn1 | 6.00 to 7.00 |
| O=C(NCc1cc(F)cc(-c2cnn(-c3ccc(F)cc3)c2)c1)c1ncnc2nc(C3CCC(F)C3)[nH]c12 (single isomer, unassigned) [110(A)] | 6.00 to 7.00 |
| O=C(NCc1cc(F)cc(-c2cnn(C(F)(F)F)c2)c1)c1ncnc2nc(C3CCCC3)[nH]c12 | 6.00 to 7.00 |
| Cn1cc(Nc2cc(F)cc(CNC(=O)c3ncnc4nc(C5CCCC5)[nH]c34)c2)cn1 | 6.00 to 7.00 |

Would you mind telling me what pIC50 value was observed for `O=C(NCc1cc(F)cc(-c2cnn(-c3ccc(F)nc3)c2)c1)c1ncnc2nc(C3CCCC3)[nH]c12` ? > 7.00

For the molecule `CC(=O)c1ccc(-n2cc(-c3cc(F)cc(CNC(=O)c4ncnc5nc(C6CCCC6)[nH]c45)c3)cn2)cc1` , what pIC50 is on record? > 7.00

Report pIC50 for `COc1ccc(-n2cc(-c3cc(F)cc(CNC(=O)c4ncnc5nc(C6CCCC6)[nH]c45)c3)cn2)cn1` please. 6.00 to 7.00

Consider the molecule `[2H]c1c([2H])c([2H])c(-n2cc(-c3cc(F)cc(CNC(=O)c4ncnc5nc(C6CCCC6)[nH]c45)c3)cn2)c([2H])c1[2H]` and give its measured pIC50. 6.00 to 7.00

Item under review: O=C(NCc1cc(F)cc(-c2cnn(-c3ccc(F)nc3)c2)c1)c1ncnc2nc(C3CCC(F)(F)C3)[nH]c12 (stereo not shown) . Reported pIC50? > 7.00

Form field: reported pIC50 of O=C(NCc1cc(F)cc(-c2cnn(-c3ccc(F)cc3)c2)c1)c1ncnc2nc(C3CC(F)C3)[nH]c12 (single isomer, unassigned) [102(B)] 6.00 to 7.00

Name the recorded pIC50 for `O=C(NCc1cc(F)cc(Nc2nncs2)c1)c1ncnc2nc(C3CCCC3)[nH]c12` . < 5.00

What measured pIC50 goes with `CN1CCC[C@@H]1c1nc2ncnc(C(=O)NCc3cc(F)cc(-c4cnn(C)c4)c3)c2[nH]1` ? 5.00 to 6.00
